test.description: Balb/C mouse pharmacokinetics (plasma, colon, ileum)
Assay type: in vivo
condition.context: male, po, Balb/C mice, p.o. 5 mg/kg, colon, read-out: Curve area AUC0-t
Exercise: state measured AUC(0-t) for each of the molecules provided.
Give the quantity in ng·h/mL, number only.

Problem: Determine its reported AUC(0-t): Cc1cc(Nc2nc(N[C@@H]3C[C@H]4CC[C@@H](C3)N4CCC#N)nc3cc(-c4cccnc4)ccc23)n[nH]1
Solution: 2040

Problem: Determine its reported AUC(0-t): Cc1cc(Nc2nc(N[C@@H]3C[C@H]4CC[C@@H](C3)N4CCC#N)nc3cc(N4CCOCC4)ccc23)n[nH]1
Solution: 10600

Problem: Determine its reported AUC(0-t): Cc1cc(Nc2nc(N[C@@H]3C[C@H]4CC[C@@H](C3)N4CCC#N)nc3cc(Br)ccc23)n[nH]1
Solution: 13000

Problem: Determine its reported AUC(0-t): Cc1cc(Nc2nc(N[C@@H]3C[C@H]4CCC[C@@H](C3)N4C(=O)CN3CCOCC3)nc3ccsc23)n[nH]1
Solution: 2900

Problem: Determine its reported AUC(0-t): Cc1cc(Nc2nc(N[C@@H]3C[C@H]4CC[C@@H](C3)N4CCC#N)nc3cc(Cl)ccc23)n[nH]1
Solution: 2010

Problem: Determine its reported AUC(0-t): Cc1cc(Nc2nc(N[C@@H]3C[C@H]4CCC[C@@H](C3)N4C(=O)c3ccccn3)nc3sccc23)n[nH]1
Solution: 24400

Problem: Determine its reported AUC(0-t): Cc1cc(Nc2nc(N[C@@H]3C[C@H]4CCC[C@@H](C3)N4S(=O)(=O)c3ccccn3)nc3sccc23)n[nH]1
Solution: 5610

----------
Exercise: state measured AUC(0-t) for each of the molecules provided.
test.description: Balb/C mouse pharmacokinetics (plasma, colon, ileum)
Format: in vivo
condition.context: male, plasma, po, Balb/C mice, p.o. 5 mg/kg, blood, read-out: Curve area AUC0-t
Give the quantity in ng·h/mL, number only.

Problem: Determine its reported AUC(0-t): Cc1cc(Nc2nc(N[C@@H]3C[C@H]4CC[C@@H](C3)N4S(=O)(=O)N3CC(C#N)C3)nc3cc(Cl)ccc23)n[nH]1
Solution: 3.59

Problem: Determine its reported AUC(0-t): Cc1cc(Nc2nc(N[C@@H]3C[C@H]4CCC[C@@H](C3)N4CCC#N)nc3scnc23)n[nH]1
Solution: 3.62

Problem: Determine its reported AUC(0-t): Cc1cc(Nc2nc(N[C@@H]3C[C@H]4CC[C@@H](C3)N4S(=O)(=O)N3CC(C#N)C3)nc3sccc23)n[nH]1
Solution: 11

Problem: Determine its reported AUC(0-t): Cc1cc(Nc2nc(N[C@@H]3C[C@H]4CCC[C@@H](C3)N4C(=O)c3ccncc3)nc3sccc23)n[nH]1
Solution: 13.4

Problem: Determine its reported AUC(0-t): Cc1cc(Nc2nc(N[C@@H]3C[C@H]4CC[C@@H](C3)N4CCC#N)nc3cc(-c4cccnc4)ccc23)n[nH]1
Solution: 6.76

Problem: Determine its reported AUC(0-t): Cc1cc(Nc2nc(N[C@@H]3C[C@H]4CCC[C@@H](C3)N4S(=O)(=O)N3CC(C#N)C3)nc3sccc23)n[nH]1
Solution: 19.6

----------
reported.property: IC50 (nM)
Give the quantity in nM, number only.

Problem: Please report IC50 with JAK2 (Homo sapiens, UniProt O60674) for item Cc1cc(Nc2nc(N[C@@H]3C[C@H]4CC[C@@H](C3)N4S(=O)(=O)N3CC(C#N)C3)nc3cc(Cl)ccc23)n[nH]1 .
Sequence (O60674 whole entry): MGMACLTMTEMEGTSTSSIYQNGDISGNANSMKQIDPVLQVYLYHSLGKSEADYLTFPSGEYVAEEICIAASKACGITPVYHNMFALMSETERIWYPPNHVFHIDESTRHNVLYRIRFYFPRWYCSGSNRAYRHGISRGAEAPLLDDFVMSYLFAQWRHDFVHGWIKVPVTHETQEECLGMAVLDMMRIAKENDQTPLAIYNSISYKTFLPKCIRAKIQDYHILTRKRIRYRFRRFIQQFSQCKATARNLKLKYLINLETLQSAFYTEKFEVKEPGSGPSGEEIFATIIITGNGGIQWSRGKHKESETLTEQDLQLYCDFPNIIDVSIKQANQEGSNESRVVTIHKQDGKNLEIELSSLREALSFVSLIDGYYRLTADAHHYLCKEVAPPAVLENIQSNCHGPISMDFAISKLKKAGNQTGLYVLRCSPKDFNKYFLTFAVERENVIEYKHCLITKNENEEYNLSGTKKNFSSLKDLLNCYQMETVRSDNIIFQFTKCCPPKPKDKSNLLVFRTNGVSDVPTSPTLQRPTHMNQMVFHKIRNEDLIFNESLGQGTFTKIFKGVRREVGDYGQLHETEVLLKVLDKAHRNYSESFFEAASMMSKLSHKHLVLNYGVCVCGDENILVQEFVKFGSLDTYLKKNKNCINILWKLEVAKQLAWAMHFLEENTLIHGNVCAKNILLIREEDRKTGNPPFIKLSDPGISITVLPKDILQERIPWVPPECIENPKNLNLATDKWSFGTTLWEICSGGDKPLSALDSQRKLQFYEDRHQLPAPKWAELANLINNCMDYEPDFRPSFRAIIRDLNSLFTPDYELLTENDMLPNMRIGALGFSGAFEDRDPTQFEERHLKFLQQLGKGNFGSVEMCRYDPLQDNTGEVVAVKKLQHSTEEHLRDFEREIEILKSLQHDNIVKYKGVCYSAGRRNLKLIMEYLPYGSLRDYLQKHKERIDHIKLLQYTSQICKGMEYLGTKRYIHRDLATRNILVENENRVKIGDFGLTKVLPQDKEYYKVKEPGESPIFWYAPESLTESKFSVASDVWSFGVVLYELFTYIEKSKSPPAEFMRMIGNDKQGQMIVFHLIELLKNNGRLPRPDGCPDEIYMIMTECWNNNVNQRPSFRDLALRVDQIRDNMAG
Solution: 0.82

Problem: Please report IC50 with JAK2 (Homo sapiens, UniProt O60674) for item Cc1cc(Nc2nc(N[C@@H]3C[C@H]4CC[C@@H](C3)N4CCC#N)nc3cc[nH]c23)n[nH]1 .
Solution: 0.77

Problem: Please report IC50 with JAK2 (Homo sapiens, UniProt O60674) for item CNCC(=O)N1[C@@H]2CCC[C@H]1C[C@H](Nc1nc(Nc3cc(C)[nH]n3)c3ccsc3n1)C2 .
Solution: 0.73

Problem: Please report IC50 with JAK2 (Homo sapiens, UniProt O60674) for item Cc1cc(Nc2nc(N[C@@H]3C[C@H]4CCC[C@@H](C3)N4C(=O)CN3CCOCC3)nc3sccc23)n[nH]1 .
Solution: 0.71

Problem: Please report IC50 with JAK2 (Homo sapiens, UniProt O60674) for item Cc1cc(Nc2nc(N[C@@H]3C[C@H]4CC[C@@H](C3)N4CCC#N)nc3[nH]ccc23)n[nH]1 .
Solution: 0.29

Problem: Please report IC50 with JAK2 (Homo sapiens, UniProt O60674) for item Cc1cc(Nc2nc(N[C@@H]3C[C@H]4CCC[C@@H](C3)N4CCC#N)nc3scnc23)n[nH]1 .
Solution: 1.34

Problem: Please report IC50 with JAK2 (Homo sapiens, UniProt O60674) for item N#CCCN1[C@@H]2CC[C@H]1C[C@H](Nc1nc(Nc3cc(CO)[nH]n3)c3ccsc3n1)C2 .
Solution: 2.96

Problem: Please report IC50 with JAK2 (Homo sapiens, UniProt O60674) for item Cc1cc(Nc2nc(N[C@@H]3C[C@H]4CC[C@@H](C3)N4CCC#N)nc3ccccc23)n[nH]1 .
Solution: 0.55

Problem: Please report IC50 with JAK2 (Homo sapiens, UniProt O60674) for item Cc1cc(Nc2nc(N[C@@H]3C[C@H]4CC[C@@H](C3)N4CCC#N)nc3cc(Cl)ccc23)n[nH]1 .
Solution: 0.67

Problem: Please report IC50 with JAK2 (Homo sapiens, UniProt O60674) for item Cc1cc(Nc2nc(N[C@@H]3C[C@H]4CCC[C@@H](C3)N4S(=O)(=O)N3CC(C#N)C3)nc3sccc23)n[nH]1 .
Solution: 0.44

Problem: Please report IC50 with JAK2 (Homo sapiens, UniProt O60674) for item Cc1cc(Nc2nc(N[C@@H]3C[C@H]4CC[C@@H](C3)N4CCC#N)nc3cc(-c4cnn(C)c4)ccc23)n[nH]1 .
Solution: 0.73

Problem: Please report IC50 with JAK2 (Homo sapiens, UniProt O60674) for item Cc1cc(Nc2nc(N[C@@H]3C[C@H]4CC[C@@H](C3)N4C(=O)CN(C)C)nc3sccc23)n[nH]1 .
Solution: 2.42

Problem: Please report IC50 with JAK2 (Homo sapiens, UniProt O60674) for item Cc1cc(Nc2nc(N(C)[C@@H]3C[C@H]4CCC[C@@H](C3)N4S(=O)(=O)N3CC(C#N)C3)nc3sccc23)n[nH]1 .
Solution: 1.25

Problem: Please report IC50 with JAK2 (Homo sapiens, UniProt O60674) for item Cc1cc(Nc2nc(N(C)[C@@H]3C[C@H]4CC[C@@H](C3)N4S(=O)(=O)N3CC(C#N)C3)nc3sccc23)n[nH]1 .
Solution: 1.39

Problem: Please report IC50 with JAK2 (Homo sapiens, UniProt O60674) for item Cc1cc(Nc2nc(N[C@@H]3C[C@H]4CC[C@@H](C3)N4S(=O)(=O)c3cccnc3)nc3sccc23)n[nH]1 .
Solution: 1.81

Problem: Please report IC50 with JAK2 (Homo sapiens, UniProt O60674) for item COc1ccc2c(Nc3cc(C)[nH]n3)nc(N[C@@H]3C[C@H]4CCC[C@@H](C3)N4S(=O)(=O)N3CC(C#N)C3)nc2c1 .
Solution: 0.76

Problem: Please report IC50 with JAK2 (Homo sapiens, UniProt O60674) for item Cc1cc(Nc2nc(N[C@@H]3C[C@H]4CCC[C@@H](C3)N4S(=O)(=O)N3CC(C#N)C3)nc3ccccc23)n[nH]1 .
Solution: 1.61

Problem: Please report IC50 with JAK2 (Homo sapiens, UniProt O60674) for item Cc1cc(Nc2nc(N[C@@H]3C[C@H]4CCC[C@@H](C3)N4C(=O)CN(C)C)nc3sccc23)n[nH]1 .
Solution: 0.85

Problem: Please report IC50 with JAK2 (Homo sapiens, UniProt O60674) for item Cc1cc(Nc2nc(N[C@@H]3C[C@H]4CC[C@@H](C3)N4S(=O)(=O)N3CC(C#N)C3)nc3ccccc23)n[nH]1 .
Solution: 0.3

Problem: Please report IC50 with JAK2 (Homo sapiens, UniProt O60674) for item Cc1cnc(Nc2cc3ncccc3c(N[C@@H]3C[C@H]4CC[C@@H](C3)N4CCC#N)n2)s1 .
Solution: 0.69

Problem: Please report IC50 with JAK2 (Homo sapiens, UniProt O60674) for item COc1ccc2c(Nc3cc(C)[nH]n3)nc(N[C@@H]3C[C@H]4CC[C@@H](C3)N4CCC#N)nc2c1 .
Solution: 1.07

Problem: Please report IC50 with JAK2 (Homo sapiens, UniProt O60674) for item COc1ccc2c(Nc3cc(C)[nH]n3)nc(N(C)[C@@H]3C[C@H]4CC[C@@H](C3)N4S(=O)(=O)N3CC(C#N)C3)nc2c1 .
Solution: 1.05

Problem: Please report IC50 with JAK2 (Homo sapiens, UniProt O60674) for item Cc1cc(Nc2nc(N[C@@H]3C[C@H]4CC[C@@H](C3)N4CCC#N)nc3sc(C)cc23)n[nH]1 .
Solution: 1.01

Problem: Please report IC50 with JAK2 (Homo sapiens, UniProt O60674) for item Cc1cc(Nc2nc(N[C@@H]3C[C@H]4CCC[C@@H](C3)N4C(=O)c3ccccn3)nc3sccc23)n[nH]1 .
Solution: 0.36

Problem: Please report IC50 with JAK2 (Homo sapiens, UniProt O60674) for item CN(c1nc(Nc2cc(CO)[nH]n2)c2ccsc2n1)[C@@H]1C[C@H]2CCC[C@@H](C1)N2S(=O)(=O)N1CC(C#N)C1 .
Solution: 0.77

Problem: Please report IC50 with JAK2 (Homo sapiens, UniProt O60674) for item Cc1cc(Nc2nc(N(C)[C@@H]3C[C@H]4CCC[C@@H](C3)N4C(=O)CN3CCN(C)CC3)nc3sccc23)n[nH]1 .
Solution: 0.83

Problem: Please report IC50 with JAK2 (Homo sapiens, UniProt O60674) for item Cc1cc(Nc2nc(N[C@@H]3C[C@H]4CC[C@@H](C3)N4S(=O)(=O)N3CC(C#N)C3)nc3sccc23)n[nH]1 .
Solution: 0.79

meta.source: patent US20230043863A1
